- System: A375 malignant melanoma
- experiment_notes: Inhibition of cell proliferation (14C-thymidine incorporation), A375
- Format: cell-based, human
- setup_conditions: Homo sapiens, A-375
measure: IC50 (µM)

Check out these entries, answers already filled in.
O[C@H]1CC[C@H](Nc2nccc(-c3c[nH]c4ncccc34)n2)CC1 :: 0.00177
OCC[C@H]1CC[C@H](Nc2nccc(-c3c[nH]c4ncccc34)n2)CC1 :: 0.00616
c1cnc2[nH]cc(-c3ccnc(N[C@@H]4CC5CCC4C5)n3)c2c1 (stereo partly drawn) :: 0.277
Cc1cc(OCCN(C)C)ccc1Nc1nccc(-c2c[nH]c3ncccc23)n1 :: 2.81

a. COc1cccc(Nc2nccc(-c3c[nH]c4ncccc34)n2)c1
b. COc1ccc(Nc2nccc(-c3c[nH]c4ncccc34)n2)c(C)c1
c. Brc1ccccc1Nc1nccc(-c2c[nH]c3ncccc23)n1
d. CNCCn1cc(-c2ccnc(N[C@H]3CC[C@H](O)CC3)n2)c2cccnc21
e. Cc1cc(Br)ccc1Nc1nccc(-c2c[nH]c3ncccc23)n1
Query: Hey, quick one: sort these by IC50, low to high? Return the labels ranked in the requested order, please.
Reply: b, e, c, a, d
(b: 0.0045 µM, e: 0.042 µM, c: 0.0676 µM, a: 0.95 µM, d: 3.95 µM)

Reference for the values: patent US7855205B2
